System: Escherichia coli TOP10;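 also: peptides expressed intracellularly from a pBAD plasmid library in pooled LB shake-flask culture, induced with 0.3% L-arabinose, DNA abundance read by NGS, three biological replicates, DESeq2 with apeglm shrinkage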
Test: shrunken log2 fold change of peptide-encoding DNA abundance (4.5 h post-induction vs induction); higher = less antimicrobial activity (less host growth inhibition)
Details: time post-induction: 4.5 h; library: site-saturation at positions 5, 18, 19, 20
OBSERVABLE: shrunken log2 fold change
Lab note: write the figure by itself, no unit.

Use the examples below as a reference point.
[
  {
    "CHAIN_SEQUENCE": "RRIRARPPRLPRPRPRPKFMPRP",
    "shrunken log2 fold change": 0.0584
  },
  {
    "CHAIN_SEQUENCE": "RRIRARPPRLPRPRPRPRTQPRP",
    "shrunken log2 fold change": 0.634
  },
  {
    "CHAIN_SEQUENCE": "RRIRNRPPRLPRPRPRPIGRPRP",
    "shrunken log2 fold change": -0.0141
  },
  {
    "CHAIN_SEQUENCE": "RRIRLRPPRLPRPRPRPNIAPRP",
    "shrunken log2 fold change": -0.0706
  },
  {
    "CHAIN_SEQUENCE": "RRIRPRPPRLPRPRPRPQWPPRP",
    "shrunken log2 fold change": -0.0484
  },
  {
    "CHAIN_SEQUENCE": "RRIRFRPPRLPRPRPRPFMCPRP",
    "shrunken log2 fold change": -0.98
  },
  {
    "CHAIN_SEQUENCE": "RRIRMRPPRLPRPRPRPVQIPRP",
    "shrunken log2 fold change": 0.378
  }
]

Could you now look at the following sequence, please?
State the recorded shrunken log2 fold change for this entry: "RRIRGRPPRLPRPRPRPTNYPRP"
1.07
